Entry source: patent US20090304692A1

target: PI3K-γ (Homo sapiens, UniProt P48736); assay: PI3K-gamma fluorescence polarization assay; conditions: read-out: IC50 PI3Kγ
Sequence (P48736 whole entry, species assumed): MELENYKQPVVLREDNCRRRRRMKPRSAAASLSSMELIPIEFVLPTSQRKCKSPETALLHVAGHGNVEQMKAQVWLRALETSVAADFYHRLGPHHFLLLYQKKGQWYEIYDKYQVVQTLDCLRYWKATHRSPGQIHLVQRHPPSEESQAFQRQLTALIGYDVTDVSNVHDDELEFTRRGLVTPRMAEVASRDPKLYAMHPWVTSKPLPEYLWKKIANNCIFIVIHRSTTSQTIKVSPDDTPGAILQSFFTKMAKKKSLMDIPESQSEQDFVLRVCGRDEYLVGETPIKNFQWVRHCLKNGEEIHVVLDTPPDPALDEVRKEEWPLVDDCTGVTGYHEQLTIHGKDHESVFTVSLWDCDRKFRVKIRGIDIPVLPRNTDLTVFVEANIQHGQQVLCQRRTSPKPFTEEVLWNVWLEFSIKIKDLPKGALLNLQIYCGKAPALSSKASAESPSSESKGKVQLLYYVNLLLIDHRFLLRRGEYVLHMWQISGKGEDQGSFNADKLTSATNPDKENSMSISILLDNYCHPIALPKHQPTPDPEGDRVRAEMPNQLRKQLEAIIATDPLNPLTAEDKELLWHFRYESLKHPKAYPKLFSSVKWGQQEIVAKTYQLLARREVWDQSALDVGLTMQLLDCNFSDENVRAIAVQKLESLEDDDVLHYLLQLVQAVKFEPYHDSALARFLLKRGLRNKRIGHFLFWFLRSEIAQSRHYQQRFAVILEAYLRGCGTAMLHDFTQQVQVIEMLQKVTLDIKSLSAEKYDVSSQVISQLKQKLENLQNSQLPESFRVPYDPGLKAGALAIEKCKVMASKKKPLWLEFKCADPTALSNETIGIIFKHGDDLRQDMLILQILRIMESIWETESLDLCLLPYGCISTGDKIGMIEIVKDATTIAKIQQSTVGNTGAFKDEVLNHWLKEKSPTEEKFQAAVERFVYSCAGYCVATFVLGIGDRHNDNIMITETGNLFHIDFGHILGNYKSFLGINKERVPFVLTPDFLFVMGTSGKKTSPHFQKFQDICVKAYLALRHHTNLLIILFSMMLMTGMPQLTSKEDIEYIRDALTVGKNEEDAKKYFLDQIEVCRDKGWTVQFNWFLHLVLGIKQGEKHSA
pIC50: −log10 of the molar value.
Would you mind classing the entries by pIC50? Ranges: one: < 6; two: ≥ 6 and < 7; three: ≥ 7

*Q* Kindly identify the class of CC(C)Cc1nc(-c2ccc(NC(=O)Nc3ccc(C(=O)N4CCN(C)CC4)cc3)cc2)nc(N2CCOCC2)n1 [Example 322] .
*A* three

*Q* Kindly identify the class of CC(=O)c1ccc(NC(=O)Nc2ccc(-c3nc(N4CCOCC4)nc(N4C[C@H]5C[C@@H]4CN5C(=O)OC(C)(C)C)n3)cc2)cc1 [Example 257] .
*A* two

*Q* Kindly identify the class of CS(=O)(=O)N1CC2CN(c3nc(-c4ccc(NC(=O)Nc5ccncc5)cc4)nc(N4CCOCC4)n3)CC(C1)O2 [Example 293] .
*A* two

*Q* Kindly identify the class of CN1CCCC1CCNC(=O)c1ccc(NC(=O)Nc2ccc(-c3nc(N4CCOCC4)nc(N4C5CCCC4COC5)n3)cc2)cc1 (centres unmarked) [Example 801] .
*A* three

*Q* Kindly identify the class of O=C(Nc1ccc(-c2nc(N3CCOCC3)nc(N3CC4CCC(C3)O4)n2)cc1)Nc1cccnc1 [Example 47] .
*A* three

*Q* Kindly identify the class of C[C@@H]1COCCN1c1nc(-c2ccc(NC(=O)Nc3ccc(CN4CCCC4)cc3)cc2)nc(N2C3CCC2COC3)n1 [Example 418] .
*A* one

*Q* Kindly identify the class of Cc1ccc(NC(=O)Nc2ccc(-c3nc(N4CCOCC4)nc(N4CCOCC4)n3)cc2)cc1 [Example 5] .
*A* two

*Q* Kindly identify the class of CC(C)Nc1nc(-c2ccc(NC(=O)Nc3ccc(CCO)cc3)cc2)nc(N2CC3CCC(C2)O3)n1 [Example 222] .
*A* two

*Q* Kindly identify the class of CN(C)CCNCCCc1nc(-c2ccc(NC(=O)Nc3ccncc3)cc2)nc(N2CCOCC2)n1 [Example 278] .
*A* two

*Q* Kindly identify the class of O=C(Nc1ccncc1)Nc1ccc(-c2nc(N3CCN(Cc4cccnc4)CC3)nc(N3CC4CCC(C3)O4)n2)cc1 [Example 110] .
*A* one

*Q* Kindly identify the class of C[C@@H]1COCCN1c1nc(-c2ccc(NC(=O)Nc3cccnc3)cc2)nc(N2CCOC[C@H]2C)n1 [Example 398] .
*A* one

*Q* Kindly identify the class of CCCCc1nc(-c2ccc(NC(=O)Nc3ccc(C(=O)NC4CCN(C)CC4)cc3)cc2)nc(N2CCOCC2)n1 [Example 272] .
*A* three

*Q* Kindly identify the class of CC(C)Nc1nc(-c2ccc(NC(=O)Nc3ccc(CN(C)C)cc3)cc2)nc(N2C3CCC2COC3)n1 [Example 381] .
*A* one

*Q* Kindly identify the class of CCCCc1nc(-c2ccc(NC(=O)Nc3ccc(CNCCN(C)C)cc3)cc2)nc(N2CCOCC2)n1 [Example 252] .
*A* two

*Q* Kindly identify the class of COCC(COC)Oc1nc(-c2ccc(NC(=O)Nc3ccc(N4CCN(C)CC4)cc3)cc2)nc(N2CC3CCC(C2)O3)n1 [Example 175] .
*A* two

*Q* Kindly identify the class of CCN1CCN(c2ccc(NC(=O)Nc3ccc(-c4nc(C5CCOCC5)nc(N5C6CCC5COC6)n4)cc3)cc2)CC1 [Example 434] .
*A* one

*Q* Kindly identify the class of CN1CCN(C(=O)c2ccc(NC(=O)Nc3ccc(-c4nc(N5CCCCC5)nc(N5CCOCC5)n4)cc3)cc2)CC1 [Example 597] .
*A* three

*Q* Kindly identify the class of CN(C)Cc1ccc(NC(=O)Nc2ccc(-c3nc(C4CCOCC4)nc(N4C5CCC4COC5)n3)cc2)cc1 [Example 409] .
*A* one

* * *

biological target: PI3K-γ (Homo sapiens); assay: PI3K-gamma fluorescence polarization assay; settings: read-out: IC50 PI3Kγ
measured.property: pIC50
Note on units: pIC50 is unitless, being -log10 of a concentration expressed in mol/L.

*Q* Given the compound CC(=O)NC1CCN(C(=O)c2ccc(NC(=O)Nc3ccc(-c4nc(N5CCOCC5)nc(N5CCCN(C(C)C)CC5)n4)cc3)cc2)CC1 , what is its reported pIC50?
*A* 6.34

*Q* Given the compound CC(=O)N1CC2CN(c3nc(-c4ccc(NC(=O)Nc5ccncc5)cc4)nc(N4CCOCC4)n3)CC(C1)O2 , what is its reported pIC50?
*A* 5.43

*Q* Given the compound CN(C)CCOc1ccc(NC(=O)Nc2ccc(-c3nc(N4C5CCC4COC5)nc(N4C5CCC4COC5)n3)cc2)cc1 , what is its reported pIC50?
*A* 5.41

*Q* Given the compound CC(C)(C)OC(=O)N1CC(Oc2nc(-c3ccc(NC(=O)Nc4ccncc4)cc3)nc(N3CCOCC3)n2)C1 , what is its reported pIC50?
*A* 6.98

* * *

target: Human mTOR (FLAG-TOR) (Homo sapiens); assay: mTOR kinase assay (DELFIA format, purified enzyme); assay type: biochemical; details: read-out: IC50 mTOR
Sequence (P42345 1360-2549 limits assumed): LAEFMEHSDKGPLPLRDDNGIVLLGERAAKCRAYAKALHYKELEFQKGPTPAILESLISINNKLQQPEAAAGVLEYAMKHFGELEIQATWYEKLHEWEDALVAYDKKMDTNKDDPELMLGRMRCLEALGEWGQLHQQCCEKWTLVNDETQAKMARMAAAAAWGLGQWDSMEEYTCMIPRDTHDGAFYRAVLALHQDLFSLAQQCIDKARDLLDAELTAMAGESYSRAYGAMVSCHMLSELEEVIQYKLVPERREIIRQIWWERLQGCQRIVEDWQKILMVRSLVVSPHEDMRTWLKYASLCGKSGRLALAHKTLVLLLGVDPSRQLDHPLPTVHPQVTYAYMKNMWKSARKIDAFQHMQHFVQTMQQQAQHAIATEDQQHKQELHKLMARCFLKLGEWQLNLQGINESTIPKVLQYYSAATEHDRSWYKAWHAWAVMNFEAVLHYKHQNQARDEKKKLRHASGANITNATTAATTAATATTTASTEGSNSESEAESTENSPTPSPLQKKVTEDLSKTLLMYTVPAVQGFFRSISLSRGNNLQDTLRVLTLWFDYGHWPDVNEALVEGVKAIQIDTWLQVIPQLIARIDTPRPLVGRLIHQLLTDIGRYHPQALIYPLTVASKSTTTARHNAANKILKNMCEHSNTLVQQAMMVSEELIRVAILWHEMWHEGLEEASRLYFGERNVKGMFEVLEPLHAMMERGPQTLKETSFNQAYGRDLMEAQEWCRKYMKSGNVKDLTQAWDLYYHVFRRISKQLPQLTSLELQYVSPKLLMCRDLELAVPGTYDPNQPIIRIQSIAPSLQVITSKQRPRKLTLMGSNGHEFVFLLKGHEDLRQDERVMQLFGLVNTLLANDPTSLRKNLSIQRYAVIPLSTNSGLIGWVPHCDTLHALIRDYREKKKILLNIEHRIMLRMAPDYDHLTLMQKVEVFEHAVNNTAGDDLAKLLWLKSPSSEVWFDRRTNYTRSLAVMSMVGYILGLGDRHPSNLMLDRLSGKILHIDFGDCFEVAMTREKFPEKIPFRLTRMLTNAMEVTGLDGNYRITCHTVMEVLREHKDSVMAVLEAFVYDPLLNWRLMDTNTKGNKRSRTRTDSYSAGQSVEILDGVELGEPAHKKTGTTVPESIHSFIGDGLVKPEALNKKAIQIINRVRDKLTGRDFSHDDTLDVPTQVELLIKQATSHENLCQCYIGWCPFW
pIC50: −log10 of the molar value.
Use 8 as the dividing line for pIC50, with the line itself on the met side and lower values as not met.

*Q* Reported pIC50 at or above 8? CCN1CCN(C(=O)c2ccc(NC(=O)Nc3ccc(-c4nc(N5CCCC5)nc(N5CCOCC5)n4)cc3)cc2)CC1
*A* not met

*Q* Reported pIC50 at or above 8? O=C(Nc1ccc(C(=O)N2CCCC2)cc1)Nc1ccc(-c2nc(N3CCCC3)nc(N3CCOCC3)n2)cc1
*A* not met

*Q* Reported pIC50 at or above 8? Cc1ccc(-c2nc(-c3ccc(NC(=O)Nc4cccc(C(=O)N5CCN(C)CC5)c4)cc3)nc(N3CCOCC3)n2)cc1
*A* not met

*Q* Reported pIC50 at or above 8? O=C(NCCN1CCCCC1)Nc1ccc(NC(=O)Nc2ccc(-c3nc(N4CCOCC4)nc(N4CCOCC4)n3)cc2)cc1
*A* met

*Q* Reported pIC50 at or above 8? CC(C)Cc1nc(-c2ccc(NC(=O)Nc3ccc(C(=O)N(C)CCN(C)C)cc3)cc2)nc(N2CCOCC2)n1
*A* met

*Q* Reported pIC50 at or above 8? O=C(Nc1ccc(-c2nc(OCCC3CCNCC3)nc(N3CC4CCC(C3)O4)n2)cc1)Nc1cccnc1
*A* met

*Q* Reported pIC50 at or above 8? O=C(Nc1ccc(C(=O)O)cc1)Nc1ccc(-c2nc(N3CCOCC3)nc(N3C4CCC3COC4)n2)cc1
*A* met

*Q* Reported pIC50 at or above 8? CC(C)N1CCCN(c2nc(-c3ccc(NC(=O)Nc4ccc(C(=O)N5CCN(C)CC5)cc4)cc3)nc(N3CCOCC3)n2)CC1
*A* not met

*Q* Reported pIC50 at or above 8? CC(C)(CO)Nc1nc(-c2ccc(NC(=O)Nc3cccnc3)cc2)nc(N2CC3CCC(C2)O3)n1
*A* met

*Q* Reported pIC50 at or above 8? CCN1CCN(C(=O)c2ccc(NC(=O)Nc3ccc(-c4nc(N5CCOCC5)nc(N5CC6CCC5CO6)n4)cc3)cc2)CC1 (centres unmarked)
*A* met

*Q* Reported pIC50 at or above 8? O=C(Nc1ccncc1)Nc1ccc(-c2nc(N3CCOCC3)nc(N3C4COCC3COC4)n2)cc1
*A* met

*Q* Reported pIC50 at or above 8? CCN1CCN(c2ccc(NC(=O)Nc3ccc(-c4nc(N5CCOC[C@H]5C)nc(N5CCOC[C@H]5C)n4)cc3)cc2)CC1
*A* met

*Q* Reported pIC50 at or above 8? O=C(Nc1ccc(CN2CCCC2)cc1)Nc1ccc(-c2nc(N3C4CCC3COC4)nc(N3C4CCC3COC4)n2)cc1
*A* met

* * *

biological target: UniProt P42336; assay: PI3K-alpha fluorescence polarization assay; conditions: read-out: IC50 PI3Kα
Sequence (P42336 whole entry, species assumed): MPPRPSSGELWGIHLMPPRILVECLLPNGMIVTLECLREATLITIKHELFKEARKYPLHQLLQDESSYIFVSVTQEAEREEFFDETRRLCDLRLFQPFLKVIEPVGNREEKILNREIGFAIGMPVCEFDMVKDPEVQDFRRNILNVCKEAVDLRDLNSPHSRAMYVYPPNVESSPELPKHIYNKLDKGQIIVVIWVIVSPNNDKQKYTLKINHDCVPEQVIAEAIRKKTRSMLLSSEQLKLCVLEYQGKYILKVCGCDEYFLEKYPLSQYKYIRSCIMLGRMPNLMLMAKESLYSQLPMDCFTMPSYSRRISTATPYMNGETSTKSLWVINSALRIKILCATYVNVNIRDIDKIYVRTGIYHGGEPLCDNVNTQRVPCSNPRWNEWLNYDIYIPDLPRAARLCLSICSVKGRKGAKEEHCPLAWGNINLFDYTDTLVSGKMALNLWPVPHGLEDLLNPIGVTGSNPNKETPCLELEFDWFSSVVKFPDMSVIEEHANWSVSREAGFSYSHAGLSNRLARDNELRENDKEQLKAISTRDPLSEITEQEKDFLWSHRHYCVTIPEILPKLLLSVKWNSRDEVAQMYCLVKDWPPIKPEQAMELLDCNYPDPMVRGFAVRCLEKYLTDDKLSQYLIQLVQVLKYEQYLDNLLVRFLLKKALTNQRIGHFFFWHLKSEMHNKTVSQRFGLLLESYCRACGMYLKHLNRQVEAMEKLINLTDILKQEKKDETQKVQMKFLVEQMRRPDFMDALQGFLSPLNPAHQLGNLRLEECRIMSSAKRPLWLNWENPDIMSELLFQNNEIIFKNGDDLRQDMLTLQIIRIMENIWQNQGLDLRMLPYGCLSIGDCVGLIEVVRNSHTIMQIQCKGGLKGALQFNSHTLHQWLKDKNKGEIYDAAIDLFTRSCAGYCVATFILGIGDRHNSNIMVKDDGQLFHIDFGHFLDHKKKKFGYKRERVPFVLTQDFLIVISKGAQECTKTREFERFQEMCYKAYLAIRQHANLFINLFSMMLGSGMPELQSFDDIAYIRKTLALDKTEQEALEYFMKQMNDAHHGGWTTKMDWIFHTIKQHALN
Sequence (P27986 whole entry partner, species assumed): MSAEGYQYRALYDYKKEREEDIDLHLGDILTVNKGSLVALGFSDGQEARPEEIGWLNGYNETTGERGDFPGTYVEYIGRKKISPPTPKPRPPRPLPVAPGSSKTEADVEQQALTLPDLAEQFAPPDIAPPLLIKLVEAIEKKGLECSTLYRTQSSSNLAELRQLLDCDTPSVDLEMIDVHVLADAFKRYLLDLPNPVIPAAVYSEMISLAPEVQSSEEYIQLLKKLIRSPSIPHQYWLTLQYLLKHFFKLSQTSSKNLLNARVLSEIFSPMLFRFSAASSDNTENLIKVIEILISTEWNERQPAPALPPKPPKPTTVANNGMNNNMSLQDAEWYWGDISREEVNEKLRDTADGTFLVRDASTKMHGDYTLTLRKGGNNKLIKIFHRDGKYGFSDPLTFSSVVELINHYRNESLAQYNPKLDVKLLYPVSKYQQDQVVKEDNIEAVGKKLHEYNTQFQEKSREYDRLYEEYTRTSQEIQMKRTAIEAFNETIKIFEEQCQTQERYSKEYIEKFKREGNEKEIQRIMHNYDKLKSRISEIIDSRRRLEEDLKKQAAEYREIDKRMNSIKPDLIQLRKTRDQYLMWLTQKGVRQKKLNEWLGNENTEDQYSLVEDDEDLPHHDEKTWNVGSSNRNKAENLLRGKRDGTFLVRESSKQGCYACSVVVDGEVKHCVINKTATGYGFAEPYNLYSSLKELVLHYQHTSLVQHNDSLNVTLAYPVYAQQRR
measured.property: pIC50
Note on units: pIC50 is unitless, being -log10 of a concentration expressed in mol/L.

*Q* Entry CCN1CCN(C(=O)c2ccc(NC(=O)Nc3ccc(-c4nc(N5CCCCC5)nc(N5CCOCC5)n4)cc3)cc2)CC1 , system UniProt P42336: what pIC50 was measured?
*A* 8.30

*Q* Entry O=C(Nc1ccc(F)cc1)Nc1ccc(-c2nc(N3CCOCC3)nc(N3CCOCC3)n2)cc1 , system UniProt P42336: what pIC50 was measured?
*A* 8.22

*Q* Entry CCS(=O)(=O)N1CCN(c2nc(-c3ccc(NC(=O)Nc4ccc(C(=O)OC)cc4)cc3)nc(N3CCOCC3)n2)CC1 , system UniProt P42336: what pIC50 was measured?
*A* 7.15

*Q* Entry CC(C)N1CCN(c2ccc(NC(=O)Nc3ccc(-c4nc(C5CCOCC5)nc(N5CCOC[C@H]5C)n4)cc3)cc2)CC1 , system UniProt P42336: what pIC50 was measured?
*A* 6.32

*Q* Entry CCN1CCN(C(=O)c2ccc(NC(=O)Nc3ccc(-c4nc(N5CCOCC5)nc(N5C6COCC5COC6)n4)cc3)cc2)CC1 , system UniProt P42336: what pIC50 was measured?
*A* 8.35

*Q* Entry O=C(Nc1ccncc1)Nc1ccc(-c2nc(N3CCCCC3)nc(N3CCOCC3)n2)cc1 , system UniProt P42336: what pIC50 was measured?
*A* 7.59

*Q* Entry O=C(Nc1ccc(C(=O)N2CCC(N3CCOCC3)CC2)cc1)Nc1ccc(-c2nc(N3CCOCC3)nc(N3CCOCC3)n2)cc1 , system UniProt P42336: what pIC50 was measured?
*A* 8.70

*Q* Entry O=C(Nc1ccc(C(=O)N2CCN(C3CCCC3)CC2)cc1)Nc1ccc(-c2nc(N3CCOCC3)nc(N3C4CCC3COC4)n2)cc1 , system UniProt P42336: what pIC50 was measured?
*A* 8.70

*Q* Entry C[C@H]1COCCN1c1nc(-c2ccc(NC(=O)Nc3ccc(C(=O)NCCN4CCN(C)CC4)cc3)cc2)nc(N2CCOC[C@@H]2C)n1 , system UniProt P42336: what pIC50 was measured?
*A* 7.94

*Q* Entry O=C(Nc1ccc(-c2nc(NC3CNC3)nc(N3CC4CCC(C3)O4)n2)cc1)Nc1cccnc1 , system UniProt P42336: what pIC50 was measured?
*A* 6.56

*Q* Entry O=C(Nc1ccc(-c2nc(N3C4CCC3COC4)nc(N3C4CCC3COC4)n2)cc1)N1CCNCC1 , system UniProt P42336: what pIC50 was measured?
*A* 5.38

*Q* Entry C[C@@H]1COCCN1c1nc(-c2ccc(NC(=O)Nc3ccc(C(=O)O)cc3)cc2)nc(N2CCOC[C@@H]2C)n1 , system UniProt P42336: what pIC50 was measured?
*A* 7.23

*Q* Entry CCNC(=O)Nc1ccc(-c2nc(N3CCOCC3)nc(N3CCOCC3)n2)cc1 , system UniProt P42336: what pIC50 was measured?
*A* 6.61

*Q* Entry C[C@@H]1COCCN1c1nc(-c2ccc(NC(=O)Nc3ccc(N4CCC(N(C)C)CC4)cc3)cc2)nc(N2CCOC[C@H]2C)n1 , system UniProt P42336: what pIC50 was measured?
*A* 6.54

*Q* Entry CN1CCN(c2ccc(NC(=O)Nc3ccc(-c4nc(N5CCOCC5)nc(N5C6CCC5COC6)n4)cc3)cn2)CC1 , system UniProt P42336: what pIC50 was measured?
*A* 7.62

*Q* Entry O=C(Nc1ccc(-c2nc(N3CCOCC3)nc(N3CCOCC3)n2)cc1)Nc1ccnnc1 , system UniProt P42336: what pIC50 was measured?
*A* 7.96

*Q* Entry CC(C)Nc1nc(-c2ccc(NC(=O)Nc3ccc(C(=O)NN(C)C)cc3)cc2)nc(N2CC3CCC(C2)O3)n1 , system UniProt P42336: what pIC50 was measured?
*A* 6.55

*Q* Entry CC(C)N1CCN(C(=O)c2ccc(NC(=O)Nc3ccc(-c4nc(N5CCOC[C@@H]5C)nc(N5CCOC[C@@H]5C)n4)cc3)cc2)CC1 , system UniProt P42336: what pIC50 was measured?
*A* 8.57

*Q* Entry CCc1nc(-c2ccc(NC(=O)Nc3ccc(OCCN(C)C)cc3)cc2)nc(N2CCOCC2)n1 , system UniProt P42336: what pIC50 was measured?
*A* 7.72

*Q* Entry CCNC(=O)Nc1ccc(-c2nc(NC3CCNCC3)nc(N3C4CCC3COC4)n2)cc1 , system UniProt P42336: what pIC50 was measured?
*A* 5.18

*Q* Entry CCCCc1nc(-c2ccc(NC(=O)Nc3ccc(CNCCN(C)C)cc3)cc2)nc(N2CCOCC2)n1 , system UniProt P42336: what pIC50 was measured?
*A* 7.66

*Q* Entry CN(C)CCNC(=O)c1ccc(NC(=O)Nc2ccc(-c3nc(-c4cccs4)nc(N4CCOCC4)n3)cc2)cc1 , system UniProt P42336: what pIC50 was measured?
*A* 8.60

*Q* Entry Cc1cc(NC(=O)Nc2ccc(-c3nc(N4CCOCC4)nc(N4CCOC[C@@H]4C)n3)cc2)ccn1 , system UniProt P42336: what pIC50 was measured?
*A* 7.96

*Q* Entry CCN1CCN(C(=O)c2ccc(NC(=O)Nc3ccc(-c4nc(N5CCOC[C@@H]5C)nc(N5CCOC[C@@H]5C)n4)cc3)cc2)CC1 , system UniProt P42336: what pIC50 was measured?
*A* 8.42

*Q* Entry O=C(Nc1ccc(-c2nc(NCCN3CCOCC3)nc(N3CC4CCC(C3)O4)n2)cc1)Nc1cccnc1 , system UniProt P42336: what pIC50 was measured?
*A* 5.64

*Q* Entry CC(C)Nc1nc(-c2ccc(NC(=O)Nc3ccc(CN4CCNCC4)cc3)cc2)nc(N2C3CCC2COC3)n1 , system UniProt P42336: what pIC50 was measured?
*A* 5.48

*Q* Entry CCCCc1nc(-c2ccc(NC(=O)Nc3ccc(C(=O)Nc4ccc(OCCN(C)C)cc4)cc3)cc2)nc(N2CCOCC2)n1 , system UniProt P42336: what pIC50 was measured?
*A* 8.22

*Q* Entry CCCCc1nc(-c2ccc(NC(=O)Nc3ccc(C(=O)O)cc3)cc2)nc(N2CCOCC2)n1 , system UniProt P42336: what pIC50 was measured?
*A* 7.52
